- Measured target: indoleamine 2, 3-dioxygenase (IDO1) (Homo sapiens)
- Construct: human peripheral blood mononuclear cells (PBMC) (PB003F; host or cells: human PBMC stimulated with IFN-gamma and LPS
- Sequence (P14902 whole entry): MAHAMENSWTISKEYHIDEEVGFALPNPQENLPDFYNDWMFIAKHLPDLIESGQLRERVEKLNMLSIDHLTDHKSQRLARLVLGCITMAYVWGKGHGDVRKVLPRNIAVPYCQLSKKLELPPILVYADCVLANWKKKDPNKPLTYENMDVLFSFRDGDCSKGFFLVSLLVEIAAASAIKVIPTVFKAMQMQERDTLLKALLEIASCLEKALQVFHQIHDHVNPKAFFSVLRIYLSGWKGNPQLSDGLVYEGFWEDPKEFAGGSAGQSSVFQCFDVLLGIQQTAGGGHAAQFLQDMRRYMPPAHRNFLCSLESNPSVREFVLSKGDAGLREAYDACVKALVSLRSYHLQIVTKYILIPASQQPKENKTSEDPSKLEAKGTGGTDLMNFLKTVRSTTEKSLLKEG
- Test description: PBMC IDO1 assay (kynurenine detection via mass spectrometry)
- Assay type: cell-based
- Experimental parameters: human PBMC stimulated with IFN-γ and LPS, 2 days, kynurenine by mass spectrometry; read-out: IDO1 PBMC pIC50 (converted)
Quantity kind: IC50

Some entries whose results are on file:
INSERT INTO results (compound, measured_target, result) VALUES
  ('CC#CCOc1ccc(C(=O)NC(CC2CCN(C(=O)OC(C)(C)C)CC2)c2ccccc2)cc1 (stereo not shown)', 'indoleamine 2, 3-dioxygenase (IDO1) (Homo sapiens)', '79.4 nM'),
  ('COc1ccc([C@H](CC2CCN(C(=O)OC(C)(C)C)CC2)NC(=O)c2ccc(Br)s2)cn1', 'indoleamine 2, 3-dioxygenase (IDO1) (Homo sapiens)', '1.58 nM');

For reference, reported IC50 for CC(C)(C)OC(=O)N1CCC(CC(NC(=O)c2ccc(F)s2)C2CCCCC2)CC1 (stereo not shown) stands at 20 nM

For reference, reported IC50 for O=C(NC(CC1CCN(C(=O)N2CCCCC2)CC1)c1ccccc1)c1ccc(Cl)cc1 (stereo not shown) stands at 631 nM
